Provide the recorded TGI for the entries that follow.
System: HOP-18 NSCLC
Assay: NCI tumour cell line growth inhibition, 48 h

Measured TGI, `CC(=O)CCC#Cc1ccccc1C(=O)C(C)=[N+]=[N-]` : > 100 µM

Record `CCOC(=O)CC1=N/C(=N/C(=N)N[N+](=O)[O-])SC1` . Reported TGI: > 100 µM

For this molecule ( `O=S1OC(c2ccccc2)(c2ccccc2)C(c2ccccc2)(c2ccccc2)O1` ), measured TGI is > 100 µM

Value of measured TGI for the entry C=C(Br)C(C)(Cl)CCC(Br)C(C)(C)Br (stereo not given) : > 100 µM

The molecule listed as `CC(=O)N1C/C(=C\c2ccccc2)C(=O)/C(=C/c2ccccc2)C1` shows TGI equal to 32.9 µM

// COc1ccc(C(=O)C(C(=O)CCC(=O)Nc2ccc(Cl)c(Cl)c2)c2ccc(OC)cc2)cc1 (stereo not given) : TGI value = > 100 µM

What the record says about CN(C)CC1CC/C(=C\c2ccc(Cl)c(Cl)c2)C1=O (stereo not given) : TGI is > 100 µM

Notebook: `COc1ccc(-c2cc(N3CCN(c4ccc(Cl)cc4)CC3)c(C#N)c(=O)o2)cc1` , TGI read as 44.3 µM

molecule `O=C([CH-]C(=O)c1ccccc1)c1ccccc1.O=C([CH-]C(=O)c1ccccc1)c1ccccc1.O=C([CH-]C(=O)c1ccccc1)c1ccccc1.[Ga+3]` , TGI observed: > 100 µM

So, COc1nc(NC2OC(COC(C)=O)C(OC(C)=O)C(OC(C)=O)C2OC(C)=O)c(N=CC=Nc2c(NC3OC(COC(C)=O)C(OC(C)=O)C(OC(C)=O)C3OC(C)=O)nc(OC)[nH]c2=O)c(=O)[nH]1 (stereo not given) ? Its TGI was > 100 µM

====

Test system: HL-60(TB) leukemia
Experiment: NCI tumour cell line growth inhibition, 48 h
Please go through the items and note down their TGI.

For reference, reported TGI for `COc1cc2nc(-c3cccs3)nc(Nc3cccc([N+](=O)[O-])c3)c2cc1OC` stands at > 100 µM

For record `COC(=O)c1c(O)c(C#N)c2[nH]c3ccccc3n2c1=O` the listed TGI is > 100 µM

TGI reported for this molecule `O=C(CCc1nnc2s/c(=C\c3ccc([N+](=O)[O-])cc3)c(=O)n12)Nc1ccc(Cl)c(Cl)c1` : 44.3 µM

Form: molecule = `C=C1CC[C@](C)(O)[C@@]2(C)CC[C@H]3C(=C(C)C)C(=O)C[C@]3(C)C[C@H]12` ; TGI = 18.9 µM

The molecule listed as `CC(=O)N1C=Cc2c(c(C)c3c([nH]c4ccccc43)c2C)C1` has a reported TGI of > 100 µM

response.value for `O=C(O)c1cc(CCc2ccc(O)c(O)c2)ccc1O` (field: TGI) = 59.2 µM

TGI in this record for COc1ccc(C2COc3c(ccc(OC)c3OC)C2=O)cc1OC (centres undefined) : > 100 µM

The molecule listed as NCCCCCC(CCN)SCC1OC(n2cnc3c(N)ncnc32)C(O)C1O (centres undefined) has a reported TGI of > 1500 µM

Entry under test: `COc1ccc2c(O)c(Oc3ccc(Cl)cc3)c(=O)oc2c1` . Its TGI was > 100 µM

====

Tested on: UACC-62 melanoma
Test: NCI tumour cell line growth inhibition, 48 h
measure: TGI

response.value for `O=C1NC(=O)C(c2c[nH]c3ccccc23)=C1c1c[nH]c2ccccc12` (field: TGI) = > 25 µM

So for `CN(C)CCNc1ccc(NCC[N+](C)(C)Cc2ccc([N+](=O)[O-])cc2)c2c1C(=O)c1c(O)ccc(O)c1C2=O` , the logged TGI turned out to be > 100 µM

Reported TGI of CC(C)[Si](OC12CCC(CC1O)CC2CO)(C(C)C)C(C)C (stereo not drawn) : 28.9 µM

The reported TGI of the compound `Cn1cc(C2=C(c3ccsc3)C(=O)NC2=O)c2ccccc21` was > 25 µM

For `C=CCOC(=O)Cn1cnc2c(N)ncnc21` the compound record lists TGI as > 100 µM

Form: compound = CC(C)=CCc1cc2c(cc1O)C1=C(C(=O)C3=C(NCCS3(=O)=O)C1=O)C(C=C(C)C)O2 (stereo not drawn) ; TGI = 8.79 µM

# TGI of COC(=O)C(Cc1ccccc1)NC(=O)CSc1nnc(COc2ccc(Cl)cc2)n1-c1ccccc1 (stereo not drawn) = 27.9 µM

Noted for `N#CC(C#N)=c1c(=O)c2c3ccccc3cc3cccc1c32` : its TGI reads > 100 µM

TGI in this record for `CN(C)CCNC(=O)c1cc2c3cc(Cl)ccc3[nH]c2c2ncccc12` : 3.77 µM

Sure, the documented TGI for `C/C(=N/NC(=O)c1ccncc1)C(F)(F)F` is > 100 µM

According to the records, this compound `O=C1c2ccccc2C(=O)N1/N=C1/SC(=Nc2ccccc2)C(=Nc2ccccc2)N1c1ccccc1` displays TGI of > 100 µM

Query O=C(Cc1ccccc1)NN1C(=O)C(Cl)C1c1ccc(Cl)cc1 (stereo not drawn) yields TGI of > 100 µM

TGI recorded for this compound, `CS(=O)(=O)OCCN(CCOS(C)(=O)=O)c1ccc(C=Nc2ccc(-c3csc(COc4ccccc4)n3)cc2)cc1` , is 19.8 µM

====

Test system: NCI-H522 lung
Test: NCI tumour cell line growth inhibition, 48 h
measure: TGI

TGI for `C=CCc1cccc(C=O)c1O` is > 100 µM

# TGI of `O=C(O)CN1CCSc2ccccc2CN(CC(=O)O)CCSc2ccccc2C1` = > 100 µM

Value of measured TGI for the entry `COC(=O)c1c2c(c(C)[n+]([O-])c1C)C(=O)C(NCc1ccc(OC)cc1)=CC2=O` : 4.73 µM

Input CC1(C)CNC(=O)C2(CCCO2)CNC(C)(C)CNC(=O)C2(CCCO2)CN1 (centres undefined) . Output TGI: > 10 µM

So for CC[C@@H]1/C=C/C=C/C[C@H](C)[C@@H](O)[C@@H](C)C(=O)[C@H](C)[C@@H](O)[C@H](C)C(=O)[C@H](C)[C@@H](O)[C@H](C)/C=C/C(=O)O[C@H]2[C@@H](C)[C@@H](CC1)O[C@@]1(CC[C@@H](C)[C@@H](CC(C)O)O1)[C@@H]2C (some centres undefined) , the logged TGI turned out to be 11.4 µM

The reported value for `CN1CCN(c2cc3[nH]c4cc(O)cc(O)c4c(=O)c3cc2N)CC1` in terms of TGI is 63.5 µM

Lab book: TGI of `COc1cc2nc(-c3cccs3)nc(Nc3cccc([N+](=O)[O-])c3)c2cc1OC` noted as 38.1 µM

Note to self: TGI recorded for COc1cc([C@@H]2c3cc4c(cc3[C@H](OC3OC5COC(c6ccco6)OC5C(O)C3O)C3COC(=O)[C@@H]32)OCO4)cc(OC)c1OC (some centres undefined) was > 57.3 µM

For O=C(Cc1ccccc1)NN1C(=O)C(Cl)C1c1ccc(Cl)cc1 (centres undefined) the compound record lists TGI as > 100 µM

Consider `CCN(CC)C(=O)CCn1ccc(=O)[nH]c1=O` . Its measured TGI is > 100 µM

The compound listed as CC(C#N)(c1ccccc1)N(CCc1ccccc1)C(=O)Oc1ccccc1 (centres undefined) shows TGI equal to > 100 µM

Field TGI (entry `O=C(CCc1nnc2s/c(=C\c3ccc([N+](=O)[O-])cc3)c(=O)n12)Nc1ccc(Cl)c(Cl)c1` ) reads 32.3 µM

Notebook: COc1cccc2c1C(=O)c1c(O)c3c(c(O)c1C2=O)C[C@@](O)(C(=O)CO)CC3OC1CC(N(C)CCOCC(OC(C)=O)OC(C)=O)C(O)C(C)O1 (some centres undefined) , TGI read as > 0.01 µM

// `CN(C)CCNC(=O)c1cc2c3cc(Cl)ccc3[nH]c2c2ncccc12` : TGI value = 7.11 µM

For this compound ( C[N+]1(C)C2CC(OC(=O)C(CO)c3ccccc3)CC1C1OC12 (centres undefined) ), measured TGI is > 100 µM

Per the records, this compound ( `O=C1C=C(Nc2ccccc2)c2ccccc2C1=O` ) has TGI equal to 3.36 µM

TGI recorded for this compound, O=C(CC(NC(=O)OCc1ccccc1)C(=O)NC1Cc2ccccc2C1=O)OCc1ccccc1 (centres undefined) , is > 100 µM

What the record says about `C=C1CC[C@](C)(O)[C@@]2(C)CC[C@H]3C(=C(C)C)C(=O)C[C@]3(C)C[C@H]12` : TGI is > 50 µM

// recorded TGI for `CCN1CCN(CCC(=O)Nc2cccc(-n3cc(-c4ccncc4)c(-c4ccc(Cl)c(OC)c4)n3)c2)CC1` : 1.19 µM

====

Give TGI for every item shown.
Tested on: UO-31 renal
Experiment: NCI tumour cell line growth inhibition, 48 h

Item: `O=c1[nH]c2ccccc2n1C1CCNCC1` | System: UO-31 renal | TGI: > 100 µM

Summary: `O=C1c2ccccc2C(=O)N1/N=C1/SC(=Nc2ccccc2)C(=Nc2ccccc2)N1c1ccccc1` , UO-31 renal, TGI = > 100 µM

Noted TGI for `CN1CCN(Cc2ccc(NC(=O)c3cncc(C#Cc4cnc(N)c5ncccc45)c3)cc2C(F)(F)F)CC1` , tested on UO-31 renal: 1.21 µM

The reported TGI value, UO-31 renal, for C[N+]1([O-])C2CCC1CC(OC(=O)C(CO)c1ccccc1)C2 (stereo unspecified) reads > 100 µM

Considering `C=CC(=O)NCCC(=O)OCn1cc(F)c(=O)[nH]c1=O` , its TGI with UO-31 renal was recorded as > 100 µM

Short answer on UO-31 renal for `COC(=NC(C)C)NC(C)C` , TGI: > 100 µM

Form field, TGI with UO-31 renal, item Cc1ccc(S(=O)c2ccccc2[N+](=O)[O-])cc1 (stereo unspecified) : > 100 µM

Record for N=c1sc2ccccc2n1CCS (tested in a mixture with another compound) under target or system UO-31 renal: TGI reported as 25.8 µM

Form field TGI for item `C/C(=N/NC(=O)c1ccncc1)C(F)(F)F` on UO-31 renal: > 100 µM

Value sought: TGI, system UO-31 renal, item `O=C(O)/C=C\C(=O)Nc1ccc2c(c1)-c1ccccc1C2` . Result: > 100 µM

TGI value, target or system UO-31 renal, for `O=c1nc2n(-c3cccc(Cl)c3)c3ccc([N+](=O)[O-])cc3cc-2c(=O)[nH]1` : 13 µM

Data provenance: PubChem BioAssay (NCI)
